The measurements presented in this section are drawn from paper PMC5540273.

Reported %Inh by item:
Test system: TLK1;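 note: KINOMEscan kinase panel screen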
protocol_conditions: concentration: 1 μM, replicates: in singlicate; n = 1
measure_name: %Inh

>>> df
                                    compound  target_entity  experimental_result
 0  Nc1nccc2scc(-c3ccc4c(c3)CCN4C(=O)Cc3cc(F)ccc3F)c12           TLK1                   4%
 1  CCCc1ccc(S(=O)(=O)NC2CCN(c3ccnc(Nc4ccc(OC)cc4)n3)C2)cc1 (stereo not drawn)           TLK1                   0%
 2   Clc1cc(Nc2ncnc3cc[nH]c23)ccc1OCc1ccccn1           TLK1                  26%
 3  O=C(c1ccc(-c2cc(-c3c[nH]nc3-c3ccccn3)ccn2)cc1)N1CCCC1           TLK1                   0%
 4  C[C@@H]1CCN(C(=O)CO)C[C@@H]1N(C)c1ncnc2[nH]ccc12           TLK1                   0%
 5  Fc1ccc(-c2ncn(CCCNCc3ccccc3)c2-c2ccncc2)cc1           TLK1                  26%
 6  Cc1ccc(NC(=O)c2cccc(C#N)c2)cc1-c1ccc(C(=O)Nc2ccncc2)cc1           TLK1                   0%
 7  COC(=O)c1c(-c2ccccc2)c2cc(Cl)ccc2c(=O)n1Cc1ccc(S(C)(=O)=O)cc1           TLK1                  19%
 8  O=C(Nc1n[nH]c2nc(-c3ccco3)c(Br)cc12)c1ccc(CN2CCCC2)cc1.O=C(O)[C@H](O)[C@@H](O)C(=O)O           TLK1                   3%
 9  OCCOCCn1ccc2ncnc(Nc3ccc(Oc4cccc(Cl)c4)c(Cl)c3)c21           TLK1                   0%
10  FC(F)(F)c1cc(Nc2nccc(-c3c(-c4ccc(Cl)cc4)nn4ncccc34)n2)ccc1Cl           TLK1                   0%
11  Cn1cc(-c2ccc3c(c2)CCN3C(=O)Cc2cccc(C(F)(F)F)c2)c2c(N)ncnc21           TLK1                   2%
12  N#Cc1ccc(Oc2ccc(Nc3ncnc4cc[nH]c34)cc2Cl)cc1           TLK1                  22%
13  CC(C)(C)OC(=O)NC1CCCN(c2cc(-c3ccc4c(N)n[nH]c4c3)nc(N)n2)C1 (stereo not drawn)           TLK1                   0%
14  CN1c2ccc(-c3ccc(C(=O)NCCO)cc3)cc2-c2[nH]ncc2S1(=O)=O           TLK1                  22%
